B1: ZNF449 (parent)
chain: EPHKCPECGKRFLRSSDLYRHQRL

Variants of: B1
Test: protein stability index of a GFP-peptide fusion (GPS, HEK-293T) (PSI 1-6); higher = more stable;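 note: lentivirally expressed fusions sorted by FACS into six bins by GFP to DsRed ratio, PSI derived from sequencing read proportions per bin multiplied by bin number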
Conditions: c terminus: a fixed tail appended
For each of the variants below, state its protein stability index.
Give bare numbers.

# count of solved cases: 5
Ask | Give its protein stability index value. Item: L13N
Reply | 4.08

Ask | Give its protein stability index value. Item: E7I
Reply | 3.3

Ask | Give its protein stability index value. Item: D17E
Reply | 3.82

Ask | Give its protein stability index value. Item: K10C
Reply | 2.48

Ask | Give its protein stability index value. Item: C5M
Reply | 3.06

Kindly give each listed record's protein stability index.
1. D17V
2. P6M

Reply |
[1.69, 3.88]

Kindly give each listed record's protein stability index.
1. E7Y
2. H21A
3. E1K
4. R14A
5. K4F
6. R11I
7. R23K
8. L18K

Reply |
1: 3.66; 2: 1.62; 3: 2.79; 4: 3.89; 5: 3.98; 6: 4.63; 7: 4.27; 8: 2.74

Kindly give each listed record's protein stability index.
1. R11Y
2. C5D
3. C5L
4. R11W
5. H3F

Reply |
[4.39, 3.69, 3.3, 4.26, 4.09]

Kindly give each listed record's protein stability index.
1. L13M
2. P2S
3. H21T

Reply |
1. 4.48
2. 4.41
3. 2.34
